These measurements were taken from ChEMBL document CHEMBL3991601.

# target.under.test: Serine/threonine-protein kinase MRCK beta (Homo sapiens, UniProt Q9Y5S2); further: in the data inactive means no Kd found up to 30 µM
# Sequence (Q9Y5S2 whole entry): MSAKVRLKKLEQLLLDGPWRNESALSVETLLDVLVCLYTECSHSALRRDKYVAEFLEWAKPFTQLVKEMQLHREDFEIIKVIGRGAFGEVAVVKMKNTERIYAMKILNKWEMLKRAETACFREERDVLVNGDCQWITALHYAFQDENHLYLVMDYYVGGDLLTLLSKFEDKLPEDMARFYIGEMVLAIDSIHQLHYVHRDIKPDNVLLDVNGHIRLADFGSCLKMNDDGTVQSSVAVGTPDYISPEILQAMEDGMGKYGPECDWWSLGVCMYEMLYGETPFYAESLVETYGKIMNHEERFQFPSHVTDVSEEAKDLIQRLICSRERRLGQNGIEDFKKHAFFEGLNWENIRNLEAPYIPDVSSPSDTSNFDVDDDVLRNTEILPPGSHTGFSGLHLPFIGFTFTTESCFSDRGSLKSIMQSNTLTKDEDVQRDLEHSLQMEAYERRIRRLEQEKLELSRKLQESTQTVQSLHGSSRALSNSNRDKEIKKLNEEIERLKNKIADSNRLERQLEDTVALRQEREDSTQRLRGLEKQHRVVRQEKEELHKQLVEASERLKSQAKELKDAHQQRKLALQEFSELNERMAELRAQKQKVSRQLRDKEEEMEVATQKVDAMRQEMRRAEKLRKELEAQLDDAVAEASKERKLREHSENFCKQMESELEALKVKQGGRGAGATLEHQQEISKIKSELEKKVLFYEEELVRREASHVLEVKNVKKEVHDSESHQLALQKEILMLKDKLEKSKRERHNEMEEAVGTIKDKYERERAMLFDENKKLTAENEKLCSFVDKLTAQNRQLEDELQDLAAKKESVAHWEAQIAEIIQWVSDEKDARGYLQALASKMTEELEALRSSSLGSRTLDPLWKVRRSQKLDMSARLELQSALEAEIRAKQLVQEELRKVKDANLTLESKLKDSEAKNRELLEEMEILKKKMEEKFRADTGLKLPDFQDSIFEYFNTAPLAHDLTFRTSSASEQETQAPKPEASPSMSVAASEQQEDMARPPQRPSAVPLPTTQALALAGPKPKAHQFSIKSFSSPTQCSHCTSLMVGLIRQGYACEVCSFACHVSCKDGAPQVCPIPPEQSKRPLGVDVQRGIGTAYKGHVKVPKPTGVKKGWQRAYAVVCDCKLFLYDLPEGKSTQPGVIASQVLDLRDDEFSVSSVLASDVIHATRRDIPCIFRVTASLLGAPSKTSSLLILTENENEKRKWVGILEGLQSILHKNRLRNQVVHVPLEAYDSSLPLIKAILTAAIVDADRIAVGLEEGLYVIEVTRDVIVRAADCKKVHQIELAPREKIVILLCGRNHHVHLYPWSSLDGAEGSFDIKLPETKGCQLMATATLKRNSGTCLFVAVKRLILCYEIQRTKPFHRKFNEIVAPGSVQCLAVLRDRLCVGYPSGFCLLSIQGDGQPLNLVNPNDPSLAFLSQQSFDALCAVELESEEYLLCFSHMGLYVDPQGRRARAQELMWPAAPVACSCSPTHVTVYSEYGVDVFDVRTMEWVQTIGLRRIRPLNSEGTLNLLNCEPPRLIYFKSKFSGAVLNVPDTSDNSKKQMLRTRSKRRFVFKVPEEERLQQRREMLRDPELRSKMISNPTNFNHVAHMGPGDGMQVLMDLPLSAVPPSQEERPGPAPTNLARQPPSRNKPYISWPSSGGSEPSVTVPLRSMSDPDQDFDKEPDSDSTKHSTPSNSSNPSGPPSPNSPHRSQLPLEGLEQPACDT
Active and inactive are the calls of the source.
Here the recorded Kd is given for each entry.

Some compounds with recorded Kd:
Recorded Kd for O=C(Cc1ccc(-c2ccc(OCCN3CCOCC3)cc2)cn1)NCc1ccccc1 with Serine/threonine-protein kinase MRCK beta (Homo sapiens, UniProt Q9Y5S2), please? > 30 µM (inactive)

What about this compound? C=CC(=O)Nc1cc2c(Nc3ccc(F)c(Cl)c3)ncnc2cc1C#CC(C)(C)N1CCN(C)CC1 [AV-412 FREE BASE] > 30 µM (inactive)

One more compound: Cc1nc(Nc2n[nH]c3c2CN(C(=O)N[C@H](CN(C)C)c2ccccc2)C3(C)C)c2sccc2n1 > 30 µM (inactive)

Check CCOc1cc2ncc(C#N)c(Nc3ccc(F)c(Cl)c3)c2cc1NC(=O)/C=C/CN(C)C too. > 30 µM (inactive)

For CC(C)c1cc(CNc2nc(Nc3cc(C4CC4)[nH]n3)cc(N3CCN(C)CC3)n2)on1 then? > 30 µM (inactive)

Continuing:
Request body: readout Kd, system Serine/threonine-protein kinase MRCK beta (Homo sapiens, UniProt Q9Y5S2), query Cc1nc2cc(-n3ncc(C(=O)c4cc5ccccc5[nH]4)c3N)ccc2[nH]1 . Return the value. > 30 µM (inactive)

* * *

# target.under.test: Ribosyldihydronicotinamide dehydrogenase [quinone] (Homo sapiens); further: in the data inactive means no Kd found up to 30 µM
# Sequence (P16083 whole entry): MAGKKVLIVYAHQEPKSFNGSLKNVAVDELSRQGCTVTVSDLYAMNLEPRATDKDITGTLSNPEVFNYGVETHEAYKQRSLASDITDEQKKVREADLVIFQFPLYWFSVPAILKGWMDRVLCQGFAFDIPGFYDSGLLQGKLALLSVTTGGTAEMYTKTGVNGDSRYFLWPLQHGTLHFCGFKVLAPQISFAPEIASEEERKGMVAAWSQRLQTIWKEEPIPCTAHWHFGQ
Calls of active or inactive are those of the source.
Select the matching outcome among yes (1) for active, no (0) for inactive

Field: example entries. Status: answers known.
How did this test come out for C=CC(=O)N1CCC[C@H](n2c(=O)n(-c3ccc(Oc4ccccc4)cc3)c3c(N)ncnc32)C1 ? no (0)

Same read-out for C[C@@H](Oc1cc(-n2cnc3ccc(CN4CCN(C)CC4)cc32)sc1C(N)=O)c1ccccc1C(F)(F)F [GSK-461364] ? no (0)

***
Short answer needed: outcome of this test for N#CC1(c2ccc(NC(=O)c3cccnc3NCc3ccncc3)cc2)CCCC1 [RIVOCERANIB] ? no (0)

Another compound: CCOc1cc2ncc(C#N)c(Nc3ccc(F)c(Cl)c3)c2cc1NC(=O)/C=C/CN(C)C [PELITINIB] no (0)

Same again, this time with COCC(=O)NC/C=C/c1ccc2ncnc(Nc3ccc(Oc4ccc(C)nc4)c(C)c3)c2c1 [CP-724714] no (0)

* * *

# target.under.test: UniProt:P49759
# Sequence (P49759 whole entry): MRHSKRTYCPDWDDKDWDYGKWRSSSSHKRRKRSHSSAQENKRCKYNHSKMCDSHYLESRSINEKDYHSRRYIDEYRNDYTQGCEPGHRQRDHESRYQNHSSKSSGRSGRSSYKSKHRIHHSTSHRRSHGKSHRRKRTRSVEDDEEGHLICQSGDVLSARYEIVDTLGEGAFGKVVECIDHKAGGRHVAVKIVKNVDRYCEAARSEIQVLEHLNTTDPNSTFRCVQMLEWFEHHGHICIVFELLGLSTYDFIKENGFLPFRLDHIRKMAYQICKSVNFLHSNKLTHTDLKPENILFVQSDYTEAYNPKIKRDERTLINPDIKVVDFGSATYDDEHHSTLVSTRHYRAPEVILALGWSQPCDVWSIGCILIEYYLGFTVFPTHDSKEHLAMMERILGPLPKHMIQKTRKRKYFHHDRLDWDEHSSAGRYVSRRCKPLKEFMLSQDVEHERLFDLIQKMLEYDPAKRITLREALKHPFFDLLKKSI
Calls of active or inactive are those of the source.
Your response should consist of one outcome taken from true for active, false for inactive

Which outcome was entered for the molecule O=C(Cc1ccc(-c2ccc(OCCN3CCOCC3)cc2)cn1)NCc1ccccc1 [TIRBANIBULIN] in this test? false

More entries:
GET /call?item= CCOc1cc2ncc(C#N)c(Nc3ccc(F)c(Cl)c3)c2cc1NC(=O)/C=C/CN(C)C [PELITINIB] returns the recorded outcome of this test. false

Proceed to CC(=O)c1cnc2ccc(-c3cc(Cl)c(O)c(Cl)c3)nc2c1N[C@H]1CC[C@H](CN(C)C)CC1 true

Try the molecule Cc1cnc(NC(=O)Nc2cc(Br)c(C)cc2OC[C@@H]2CNCCO2)cn1 [RABUSERTIB] false

* * *

# target.under.test: Casein kinase II subunit alpha' (Homo sapiens); further: in the data inactive means no Kd found up to 30 µM
# Sequence (P19784 whole entry): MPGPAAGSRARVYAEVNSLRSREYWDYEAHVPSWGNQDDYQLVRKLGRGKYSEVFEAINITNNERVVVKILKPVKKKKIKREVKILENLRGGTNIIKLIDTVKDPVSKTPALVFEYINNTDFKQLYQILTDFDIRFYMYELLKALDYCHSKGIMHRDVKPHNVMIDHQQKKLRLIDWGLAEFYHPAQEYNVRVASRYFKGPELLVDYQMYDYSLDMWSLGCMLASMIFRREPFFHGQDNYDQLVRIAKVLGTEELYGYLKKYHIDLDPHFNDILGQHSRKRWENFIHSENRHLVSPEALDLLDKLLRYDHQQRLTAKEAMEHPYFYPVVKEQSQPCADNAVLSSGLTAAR
Calls of active or inactive are those of the source.
Select the correct class. Options are Yes (active), No (inactive) and nothing else.

Worked set:
Short answer needed: outcome of this test for N#CC1(c2ccc(NC(=O)c3cccnc3NCc3ccncc3)cc2)CCCC1 ? No

Same for Cc1csc(-c2nnc(Nc3ccc(Oc4ncccc4-c4ccnc(N)n4)cc3)c3ccccc23)c1 No

Now the same for Cc1cc(C(=O)NOCCO)c(Nc2ccc(I)cc2F)n(C)c1=O No

New cases:
Given C[C@H]1CNCCCN1S(=O)(=O)c1cccc2cncc(F)c12 , state the outcome it received in this test. No

Would you kindly repeat that for COCC(=O)NC/C=C/c1ccc2ncnc(Nc3ccc(Oc4ccc(C)nc4)c(C)c3)c2c1 ? No

* * *

# target.under.test: Mitogen-activated protein kinase kinase kinase 1 (Homo sapiens, UniProt Q13233); further: in the data inactive means no Kd found up to 30 µM
# Sequence (Q13233 whole entry): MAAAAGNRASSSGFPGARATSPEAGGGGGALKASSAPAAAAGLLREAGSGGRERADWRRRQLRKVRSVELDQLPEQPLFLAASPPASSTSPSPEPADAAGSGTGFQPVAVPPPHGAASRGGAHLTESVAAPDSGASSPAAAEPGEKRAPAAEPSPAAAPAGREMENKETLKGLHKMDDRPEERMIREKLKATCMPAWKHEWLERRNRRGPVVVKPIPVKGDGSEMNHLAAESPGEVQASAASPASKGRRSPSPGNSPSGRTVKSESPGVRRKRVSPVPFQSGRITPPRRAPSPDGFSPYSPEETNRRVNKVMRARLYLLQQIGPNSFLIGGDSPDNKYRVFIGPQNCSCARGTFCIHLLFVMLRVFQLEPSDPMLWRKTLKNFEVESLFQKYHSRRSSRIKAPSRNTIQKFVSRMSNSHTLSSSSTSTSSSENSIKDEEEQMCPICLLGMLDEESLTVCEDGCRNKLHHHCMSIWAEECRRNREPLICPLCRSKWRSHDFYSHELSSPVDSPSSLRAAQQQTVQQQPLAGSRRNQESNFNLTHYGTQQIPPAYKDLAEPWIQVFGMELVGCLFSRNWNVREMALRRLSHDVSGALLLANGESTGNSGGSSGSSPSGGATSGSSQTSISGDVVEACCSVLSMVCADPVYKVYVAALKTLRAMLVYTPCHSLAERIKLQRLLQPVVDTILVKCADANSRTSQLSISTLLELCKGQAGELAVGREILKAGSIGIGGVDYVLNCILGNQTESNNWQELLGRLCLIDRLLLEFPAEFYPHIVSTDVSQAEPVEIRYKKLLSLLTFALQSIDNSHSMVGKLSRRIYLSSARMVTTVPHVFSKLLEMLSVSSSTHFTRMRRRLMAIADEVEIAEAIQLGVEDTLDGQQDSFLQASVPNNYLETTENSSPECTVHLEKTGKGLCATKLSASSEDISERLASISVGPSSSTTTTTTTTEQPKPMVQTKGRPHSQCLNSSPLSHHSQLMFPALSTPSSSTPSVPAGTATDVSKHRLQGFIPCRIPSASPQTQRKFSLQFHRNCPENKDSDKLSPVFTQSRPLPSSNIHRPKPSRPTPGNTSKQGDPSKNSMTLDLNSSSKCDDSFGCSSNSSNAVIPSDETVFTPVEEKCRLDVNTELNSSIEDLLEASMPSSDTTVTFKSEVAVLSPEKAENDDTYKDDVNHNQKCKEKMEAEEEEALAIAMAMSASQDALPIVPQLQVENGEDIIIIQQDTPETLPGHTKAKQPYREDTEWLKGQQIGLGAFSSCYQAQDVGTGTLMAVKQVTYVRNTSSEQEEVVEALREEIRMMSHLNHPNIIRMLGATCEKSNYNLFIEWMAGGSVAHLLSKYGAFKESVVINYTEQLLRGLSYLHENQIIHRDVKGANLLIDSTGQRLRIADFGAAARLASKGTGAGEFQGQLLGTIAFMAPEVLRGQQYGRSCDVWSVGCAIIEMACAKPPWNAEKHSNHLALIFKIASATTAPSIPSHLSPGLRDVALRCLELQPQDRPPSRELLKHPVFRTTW
Calls of active or inactive are those of the source.
Answer with one of the outcomes given here: TRUE = active, FALSE = inactive

Look over these answered cases.
// param item: CCOc1cc2ncc(C#N)c(Nc3ccc(F)c(Cl)c3)c2cc1NC(=O)/C=C/CN(C)C ; yields the recorded call TRUE

What do you get for Cc1csc(-c2nnc(Nc3ccc(Oc4ncccc4-c4ccnc(N)n4)cc3)c3ccccc23)c1 ? FALSE

What about this compound? Nc1ncnc2c1c(-c1cccc(OCc3ccccc3)c1)cn2[C@H]1C[C@@H](CN2CCC2)C1 FALSE

What do you have for O=C(Nc1cc(C(F)(F)F)cc(C(F)(F)F)c1)c1cc(Cl)ccc1O ? FALSE

Here is the next compound: CO[C@H]1C[C@@H]2CC[C@@H](C)[C@@](O)(O2)C(=O)C(=O)N2CCCC[C@H]2C(=O)O[C@H]([C@H](C)C[C@@H]2CC[C@@H](O)[C@H](OC)C2)CC(=O)[C@H](C)/C=C(\C)[C@@H](O)[C@@H](OC)C(=O)[C@H](C)C[C@H](C)/C=C/C=C/C=C/1C FALSE

Continuing:
What call does the record list for Cc1nc(NC(=O)N2CCC[C@H]2C(N)=O)sc1-c1ccnc(C(C)(C)C(F)(F)F)c1 ? FALSE

And then CNC(=O)c1nn(C)c2c1C(C)(C)Cc1cnc(Nc3ccc(N4CCN(C)CC4)cc3)nc1-2 , what is it? FALSE

Please do the same for Cn1cnc2c(F)c(Nc3ccc(Br)cc3F)c(C(=O)NOCCO)cc21 as well. FALSE

Also Cc1cnc(NC(=O)Nc2cc(Br)c(C)cc2OC[C@@H]2CNCCO2)cn1 ? FALSE

Queued: CC(C)(C)c1nc(-c2cccc(NS(=O)(=O)c3c(F)cccc3F)c2F)c(-c2ccnc(N)n2)s1 FALSE

Another compound: Cc1nc(Nc2n[nH]c3c2CN(C(=O)N[C@H](CN(C)C)c2ccccc2)C3(C)C)c2sccc2n1 FALSE

Then this compound: COc1cc2c(Nc3ccc(Cl)c(Cl)c3F)ncnc2cc1OC[C@@H]1C[C@@H]2CN(C)C[C@@H]2C1 TRUE

What about Cc1cc(C(=O)NOCCO)c(Nc2ccc(I)cc2F)n(C)c1=O ? FALSE

* * *

Calls of active or inactive are those of the source.
# Kd per entry for Probable ATP-dependent RNA helicase DDX6 (Homo sapiens, UniProt P26196)

Some compounds with recorded Kd:
Given the entry CO[C@H]1C[C@@H]2CC[C@@H](C)[C@@](O)(O2)C(=O)C(=O)N2CCCC[C@H]2C(=O)O[C@H]([C@H](C)C[C@@H]2CC[C@@H](OP(C)(C)=O)[C@H](OC)C2)CC(=O)[C@H](C)/C=C(\C)[C@@H](O)[C@@H](OC)C(=O)[C@H](C)C[C@H](C)/C=C/C=C/C=C/1C , what Kd was observed with Probable ATP-dependent RNA helicase DDX6 (Homo sapiens, UniProt P26196)? > 30 µM (inactive)

Now consider COc1cc2ncnc(Oc3cccc(NC(=O)Nc4cc(C(C)(C)C(F)(F)F)on4)c3)c2cc1OC . > 30 µM (inactive)

Try this compound next: CC(=O)c1cnc2ccc(-c3cc(Cl)c(O)c(Cl)c3)nc2c1N[C@H]1CC[C@H](CN(C)C)CC1 > 30 µM (inactive)

Then what about the compound C=CC(=O)Nc1cc2c(Nc3ccc(F)c(Cl)c3)ncnc2cc1C#CC(C)(C)N1CCN(C)CC1 [AV-412 FREE BASE] ? > 30 µM (inactive)

// repeat for Cc1[nH]c(/C=C2\C(=O)Nc3ccccc32)c(C)c1CCC(=O)O [ORANTINIB] and report > 30 µM (inactive)

Same thing, different compound: N#CC1(c2ccc(NC(=O)c3cccnc3NCc3ccncc3)cc2)CCCC1 > 30 µM (inactive)

Next compound: Cc1cccc(-c2nn3c(c2-c2ccnc4ccc(C(N)=O)cc24)CCC3)n1 > 30 µM (inactive)

# iterate: Cc1cc(Nc2ncnc3ccc(NC4=NC(C)(C)CO4)cc23)ccc1Oc1ccn2ncnc2c1 > 30 µM (inactive)

Next up: NC1(c2ccc(-c3nc4ccn5c(=O)[nH]nc5c4cc3-c3ccccc3)cc2)CCC1 > 30 µM (inactive)

How about Cc1nc(NC(=O)N2CCC[C@H]2C(N)=O)sc1-c1ccnc(C(C)(C)C(F)(F)F)c1 ? > 30 µM (inactive)

Others:
API: value(readout= Kd, system= Probable ATP-dependent RNA helicase DDX6 (Homo sapiens, UniProt P26196), query= O=C1NC(=O)[C@@H](c2cn3c4c(cccc24)CCC3)[C@@H]1c1c[nH]c2ccccc12 [TIVANTINIB] ) > 30 µM (inactive)

Proceed to CN1CCN(CCOc2cc(OC3CCOCC3)c3c(Nc4c(Cl)ccc5c4OCO5)ncnc3c2)CC1 > 30 µM (inactive)

Consider next the compound Cc1cc(C(=O)NOCCO)c(Nc2ccc(I)cc2F)n(C)c1=O in the same way. > 30 µM (inactive)

Entry O=C(NOCCO)c1cc(CN2OCCCC2=O)c(F)c(F)c1Nc1ccc(I)cc1F please > 30 µM (inactive)

Thanks! And CN(C[C@@H]1COCCO1)S(=O)(=O)Nc1ccc2ccc3ncc(-c4cnn(C)c4)cc3c(=O)c2c1 ? > 30 µM (inactive)
